Entry source: patent US6949648B2

measured-metric: melting point

>  <compound>
Cc1nn(-c2ccccn2)c2nc(O)cc(-c3ccccc3)c12 [Example 1-27]

>  <melting point>
195 to 196 °C

$$$$
>  <compound>
Cc1nn(-c2ccccn2)c2nc3cc(Cl)ccc3c(Cl)c12 [Example 2-73]

>  <melting point>
203 to 204 °C

$$$$
>  <compound>
Cc1nn(Cc2ccccn2)c2nc3ccccc3c(N(C)C)c12 [Example 2-188]

>  <melting point>
166 to 168 °C

$$$$
>  <compound>
Fc1cccc2nc3c(cnn3-c3ccccn3)c(Cl)c12 [Example 2-162]

>  <melting point>
173 to 176 °C

$$$$
>  <compound>
Cc1nn(-c2nccs2)c2nc3ccccc3c(Cl)c12 [Example 2-149]

>  <melting point>
208 to 209 °C

$$$$
>  <compound>
Cc1nn(-c2ccccn2)c2ncc(C(=O)NCc3ccccc3)c(O)c12 [Example 1-9]

>  <melting point>
> 300 °C

$$$$
>  <compound>
CCCn1c2cc(F)c(F)cc2c(=O)c2c(C)nn(-c3ccccn3)c21 [Example 2-93]

>  <melting point>
198 to 200 °C

$$$$
>  <compound>
Cc1nn(-c2ccccn2)c2[nH]c3c(c(=O)c12)CCCCC3 [Example 2-195]

>  <melting point>
184 to 185 °C

$$$$

Next, consider the following compound.
[ask] Sample Cc1nn(-c2ccccn2)c2nc(-c3ccccc3)cc(O)c12 [Example 1-22] — what was its melting point?
[reply] 198 to 199 °C
